molecular target: SARS-CoV-2 wild-type spike receptor-binding domain (SARS-CoV-2, WT (MN908947), UniProt P0DTC2)

>  <binder>
XGv297 (antibody, V domains shown) VH: QVQLVQSGAEVKKPGASVKVSCRTSGYTFTAYYIHWVRQVPGQGLEWMGIINPSGGGASYAQTFQGRVSLTRDTSTRTVYMDLSSLISEDTAVYYCARAEGTHWLGWFDPWGQGTLVTVSS VL: QSVLTQPPSASGTPGQRVTISCSGSSSNIASNSVYWYQQLPGTAPKLLIYRNNQRPSGVPDRFSGSTSGTSASLAISGLRSEDEADYYCAAWDDNLSGSGWVFGGGTKLTVL

>  <binding result>
binds

$$$$
>  <binder>
XGV042 (antibody, V domains shown) VH: QITLKESGPTLVKPTQTLTLTCTFSGLSMTTSGVGVGWIRQPPGKALEWLALIYWDDDKRYSPFLKSRLTITKDTSKNQVVLTMTNMDPADTGTYFCAHHTIPSIFDHWGQGTLVTVSS VL: QSALTQPASVSGSPGQSITISCTATSSDVGVYNYVSWYQQYPGKAPRLIIFEVSNRPSGVSSRFSGSKSGYTASLTISGLQTDDEADYYCSSYTTTSTVFGGGTKLTVL

>  <binding result>
binds

$$$$
>  <binder>
XGv302 (antibody, V domains shown) VH: EVQLVESGGGLIQPGGSLRLSCAASGITVSSNYMNWVRQAPGKGLEWVSVIYAGGTTFYADSVKGRFTISRDSSKNTLSLQMNSLRVEDTAVYYCVRNLVVYGMDVWGQGTTVTVSS VL: DIQLTQSPSSLSASVGDRVTITCRASQGISSDLAWYQQKPGKAPKLLIYGASTLQSGVPSRFSGSGSGAHFTLTINSLQPEDFAIYYCQQLNSEFLTFGGGTKVEIK

>  <binding result>
binds

$$$$
